MEASURED_ON: unlabeled double-repeat CTD-Ser5P peptide (S. cerevisiae)
TEST_SUMMARY: fluorescence polarisation
The binders listed here are annotated with their Kd.
EXPERIMENTAL_ENDPOINT: Kd (µM)

• Nrd1_(6–151) K21P (domain or fragment) DFQNFVATLESFKDLPSGISGSRIKKLTTYALDHIDIESKIISLIIDYSRLCPDSHKLGSLYIIDSIGRAYLDETRSNSNSSSNKPGTCAHAINTLGEVIQELLSDAIAKSNQDHKEKIRMLLDIWDRSGLFQKSYLNAIRSKCFA = 70
• Nrd1_(6–151) I130R (domain or fragment) DFQNFVATLESFKDLKSGISGSRIKKLTTYALDHIDIESKIISLIIDYSRLCPDSHKLGSLYIIDSIGRAYLDETRSNSNSSSNKPGTCAHAINTLGEVIQELLSDAIAKSNQDHKEKIRMLLDRWDRSGLFQKSYLNAIRSKCFA = 215
• Nrd1_(6–151) S22D (domain or fragment) DFQNFVATLESFKDLKDGISGSRIKKLTTYALDHIDIESKIISLIIDYSRLCPDSHKLGSLYIIDSIGRAYLDETRSNSNSSSNKPGTCAHAINTLGEVIQELLSDAIAKSNQDHKEKIRMLLDIWDRSGLFQKSYLNAIRSKCFA = 140
